Target: ER in MCF-7 cells (Homo sapiens (Human), UniProt P03372)
Sequence (P03372 whole entry): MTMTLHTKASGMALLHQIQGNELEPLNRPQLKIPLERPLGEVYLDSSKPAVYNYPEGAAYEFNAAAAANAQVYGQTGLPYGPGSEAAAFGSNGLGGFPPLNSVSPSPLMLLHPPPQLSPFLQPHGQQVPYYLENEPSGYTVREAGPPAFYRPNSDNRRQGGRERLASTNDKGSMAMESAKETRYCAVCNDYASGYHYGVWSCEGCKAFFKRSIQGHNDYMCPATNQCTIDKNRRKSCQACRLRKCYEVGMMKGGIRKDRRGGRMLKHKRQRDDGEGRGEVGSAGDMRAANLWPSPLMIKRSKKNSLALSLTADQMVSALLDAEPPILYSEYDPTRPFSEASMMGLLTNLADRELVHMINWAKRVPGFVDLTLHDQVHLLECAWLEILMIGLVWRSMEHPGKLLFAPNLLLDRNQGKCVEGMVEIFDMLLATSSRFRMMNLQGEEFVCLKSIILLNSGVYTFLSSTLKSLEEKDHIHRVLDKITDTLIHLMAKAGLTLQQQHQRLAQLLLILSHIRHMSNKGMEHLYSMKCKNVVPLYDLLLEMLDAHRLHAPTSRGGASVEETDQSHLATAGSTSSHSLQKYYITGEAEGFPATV
Test: In-cell Western (ICW) ER degradation assay in MCF-7 cells
Type: cell-based
Details: MCF7, MCF-7, maximal ER degradation, 16 hrs treatment; read-out: MCF7 Dmax
Description: In-cell Western (ICW) assays in MCF-7 and T47D cell lines. Day 3: After 16 hrs of compounds treatment, cells were fixed by 4% PFA and permeabilized with elution buffer (0.1% Triton X-100 in 1% PBS Solution). Subsequently, cells were blocked with Intercept (PBS) Blocking Buffer (Li-COR, Odyssey Blocking Buffer), and were stained with ER (1:500, Cell signaling) primary antibody for overnight at cold room. […]
Entries and their Dmax values follow.

Data request: Which Dmax is listed for COc1cc(N2CC3(CC(CN4CCN5c6ccc7c(c6OC[C@H]5C4)CN([C@H]4CCC(=O)NC4=O)C7=O)CO3)C2)ccc1[C@H]1c2ccc(O)cc2CC[C@H]1c1ccccc1 (single isomer, unassigned) ?
Data returned: 50 to 75%

Data request: Query: Dmax; subject: `COc1cc(N2CCC(CN3CCN4c5ccc(C(=O)N[C@H]6CCC(=O)NC6=O)nc5OC[C@H]4C3)CC2)c(F)cc1[C@@H]1c2ccc(O)cc2CC[C@@H]1c1ccccc1`
Data returned: > 75%
